The reported measurements were obtained from ChEMBL document CHEMBL3351303.

# protocol_text: AUClast in rat at 8 mg/kg, po
# Type: ADME, organism-based
# Design: time 0 - last, dose 8 mg/kg, route oral
# study_conditions: plasma
value_kind: AUC(0-t)

>>> reading("Cn1c(=O)n(Cc2ccccc2C#N)c2c(N3CCC[C@@H](N)C3)ncnc21")
"0.249 µg·h/mL"

---

# protocol_text: Oral bioavailability in rat at 10 mg/kg
# Format: ADME, organism-based
# study_conditions: in vivo
Could you label it fulfilled if measured bioavailability is 40% or higher, and not fulfilled otherwise?

>>> class_name("Cn1c(=O)n(Cc2ccccc2C#N)c2c(N3CCC[C@@H](N)C3)cccc21")
"fulfilled"
>>> class_name("Cn1c(=O)n(Cc2ccccc2C#N)c2c(N3CCC[C@@H](N)C3)ccnc21")
"not fulfilled"
>>> class_name("Cc1cc(N2CCC[C@@H](N)C2)c2c(n1)n(C)c(=O)n2Cc1ccccc1C#N")
"fulfilled"
>>> class_name("Cn1c(=O)n(Cc2ccccc2C#N)c2c(N3CCC[C@@H](N)C3)cc(C(N)=O)nc21")
"not fulfilled"
>>> class_name("Cn1c(=O)n(Cc2ccccc2C#N)c2c(N3CC[C@@H](N)C3)ccnc21")
"not fulfilled"

---

# protocol_text: Solubility in pH 6.8 solution
# Assay type: physicochemical
value_kind: solubility (mg/mL)

>>> reading("Cc1cc(N2CCC[C@@H](N)C2)c2c(n1)n(C)c(=O)n2Cc1ccccc1C#N")
551

---

# protocol_text: Half life in dog at 6.25 mg/kg, iv
# Format: ADME, organism-based, Canis lupus familiaris
# Parameters: dose 6.25 mg/kg, route intravenous
# study_conditions: in vivo
value_kind: half-life (h)

>>> reading("Cc1cc(N2CCC[C@@H](N)C2)c2c(n1)n(C)c(=O)n2Cc1ccccc1C#N")
1.12

---

# protocol_text: Clearance in monkey at 5 mg/kg, iv
# Assay type: ADME, organism-based, Macaca mulatta
# Design: dose 5 mg/kg, route intravenous
# study_conditions: rhesus monkey, in vivo
value_kind: clearance (mL/min/kg)

>>> reading("Cc1cc(N2CCC[C@@H](N)C2)c2c(n1)n(C)c(=O)n2Cc1ccccc1C#N")
11.2

---

# protocol_text: Permeability from apical to basolateral side in human Caco2 cells
# Format: ADME, cell-based
# study_conditions: Caco-2, read-out: permeability
value_kind: Papp A→B (×10⁻⁶ cm/s)

>>> reading("Cc1cc(N2CCC[C@@H](N)C2)c2c(n1)n(C)c(=O)n2Cc1ccccc1C#N")
9

---

# protocol_text: Half life in rat at 8 mg/kg, po
# Format: ADME, organism-based
# Set-up: dose 8 mg/kg, route oral
# study_conditions: in vivo
value_kind: half-life (h)

>>> reading("Cn1c(=O)n(Cc2ccccc2C#N)c2c(N3CCC[C@@H](N)C3)ncnc21")
1.5

---

# protocol_text: AUClast in monkey at 10 mg/kg, po
# Type: ADME, organism-based, Macaca mulatta
# Design: dose 10 mg/kg, route oral, time 0 - last
# study_conditions: rhesus monkey, plasma
value_kind: AUC(0-t) (ng·h/mL)

>>> reading("Cc1cc(N2CCC[C@@H](N)C2)c2c(n1)n(C)c(=O)n2Cc1ccccc1C#N")
12900

---

# protocol_text: Volume of distribution at steady state in rat at 4 mg/kg, iv
# Format: ADME, organism-based
# Parameters: dose 4 mg/kg, route intravenous
# study_conditions: in vivo, read-out: Vdss
value_kind: Vd (L/kg)

>>> reading("Cn1c(=O)n(Cc2ccccc2C#N)c2c(N3CCC[C@@H](N)C3)ncnc21")
2.78
